Test: kinase inhibitors against Plasmodium liver-stage infection, cell-based, known kinase inhibitor set, luminescence, hepatoma host viability (AID 624392);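 also: infected cells incubated roughly two days before readout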
Settings: Plasmodium liver stage in hepatoma cells, luciferase luminescence, concentration not given here; measured here: host liver cell viability
reported_metric: liver cell % of control (%)

1. CN(C)C(=O)O[C@@H]1CN[C@@H](C#Cc2cc3ncnc(Nc4ccc(OCc5cccc(F)c5)c(Cl)c4)c3s2)C1 108
2. COc1c(C(N)=O)cc(-c2ccc(Cl)cc2)cc1-c1ccc(S(N)(=O)=O)cc1 100
3. COc1cc(N2CCN(C(C)C)CC2)ccc1Nc1nc(Nc2cccc(F)c2C(=O)O)c2cc[nH]c2n1 115
4. COC(=O)Nc1nc2ccc(Oc3ccc(NC(=O)Nc4cccc(Cl)c4)cc3)cc2[nH]1 81.3
5. Nc1nc(-c2ccc3c(c2)/C(=C\c2cc(Br)c(O)c(Br)c2)C(=O)N3)cs1 70.8

Hello, the source for this data is PubChem BioAssay, in case you need it.
